Data credit: patent US20260159499A1

We begin with a simple list: items and their reported IC50.
# tgt: FAK recombinant protein (Homo sapiens, UniProt Q05397)
# Sequence (Q05397 whole entry, species assumed): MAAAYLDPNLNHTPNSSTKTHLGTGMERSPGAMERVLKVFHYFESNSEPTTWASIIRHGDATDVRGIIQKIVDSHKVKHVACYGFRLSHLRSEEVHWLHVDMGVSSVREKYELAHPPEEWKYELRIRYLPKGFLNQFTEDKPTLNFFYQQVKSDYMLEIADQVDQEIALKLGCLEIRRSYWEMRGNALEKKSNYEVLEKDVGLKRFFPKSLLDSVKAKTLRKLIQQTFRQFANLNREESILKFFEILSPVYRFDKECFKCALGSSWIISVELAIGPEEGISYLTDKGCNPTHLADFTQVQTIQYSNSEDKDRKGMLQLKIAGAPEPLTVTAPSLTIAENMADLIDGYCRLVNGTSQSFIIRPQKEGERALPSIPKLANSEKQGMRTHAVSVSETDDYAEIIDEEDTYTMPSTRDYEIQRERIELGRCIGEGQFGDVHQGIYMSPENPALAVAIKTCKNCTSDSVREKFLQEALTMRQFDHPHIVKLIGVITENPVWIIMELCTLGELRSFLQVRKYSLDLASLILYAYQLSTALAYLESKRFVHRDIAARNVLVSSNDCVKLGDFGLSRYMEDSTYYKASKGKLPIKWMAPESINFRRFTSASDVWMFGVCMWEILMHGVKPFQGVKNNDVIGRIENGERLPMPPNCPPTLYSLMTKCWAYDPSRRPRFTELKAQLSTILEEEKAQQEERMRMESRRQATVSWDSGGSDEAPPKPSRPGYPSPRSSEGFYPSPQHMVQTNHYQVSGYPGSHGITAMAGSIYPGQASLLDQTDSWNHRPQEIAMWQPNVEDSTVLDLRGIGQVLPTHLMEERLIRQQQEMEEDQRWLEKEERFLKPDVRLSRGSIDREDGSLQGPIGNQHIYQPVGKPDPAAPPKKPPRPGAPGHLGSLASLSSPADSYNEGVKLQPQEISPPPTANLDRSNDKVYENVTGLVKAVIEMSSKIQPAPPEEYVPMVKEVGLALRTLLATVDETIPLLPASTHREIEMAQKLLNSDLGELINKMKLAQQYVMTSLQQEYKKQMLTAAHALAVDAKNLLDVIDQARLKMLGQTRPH
# protocol_notes: Inhibitory activity against FAK enzyme
# condition_label: TK substrate, ATP
# Method: The compound serially diluted with DMSO and a FAK recombinant protein were mixed, and the mixture was left to stand at room temperature for 10 min. A biotin-labeled TK substrate (TK) and ATP were then added. […] After the mixture was incubated at room temperature for 1 h, the fluorescence intensity at 615 nm and 665 nm was measured. The ratio of the fluorescence intensity at 665 nm and 615 nm was calculated. […]

// known answers, use as guide
COc1cc(N2CC3(CCN(C)CC3)C2)c(F)cc1Nc1ncc(Cl)c(Oc2cccc3c2C(=O)N(C)C3)n1    < 10 nM
COc1cc(C(=O)NC2CC3(CCN(C)C3)CO2)c(F)cc1Nc1ncc(C(F)(F)F)c(Oc2ccccc2N(C)S(C)(=O)=O)n1 (stereo not shown)    < 10 nM
COc1cc(C(=O)NC2CC3(CCN(C)CC3)C2)ccc1Nc1ncc(C(F)(F)F)c(Cc2cccc3c2C(=O)N(C)C3)n1    < 10 nM
COc1cc(C(=O)NC2CCC3(CC2)CCN(C)CC3)c(F)cc1Nc1ncc(C(F)(F)F)c(Oc2ccccc2N(C)S(C)(=O)=O)n1    10 to 50 nM
COc1cc(C(=O)NC2CCC3(CC2)CCN3C)c(F)cc1Nc1ncc(C(F)(F)F)c(Oc2cccc3c2C(=O)N(C)C3)n1 (stereo not shown)    < 10 nM
[2H]C([2H])([2H])N1CCC2(CC1)CC(NC(=O)c1cc(OC)c(Nc3ncc(C(F)(F)F)c(Oc4cccc5c4C(=O)N(C)C5)n3)cc1F)C2    < 10 nM
CNC(=O)c1ccccc1Oc1nc(Nc2cc(F)c(C(=O)NC3CCC4(CC3)CCN(C)CC4)cc2OC)ncc1C(F)(F)F    10 to 50 nM
COc1cc(C(=O)NC2CCC3(CC2)CN(C)C3)c(F)cc1Nc1ncc(C(F)(F)F)c(Oc2cccc3c2C(=O)N(C)C3)n1    < 10 nM

Fill in reported IC50 for this entry: COc1cc(C(=O)NC2CCC3(CC2)CCN(C)CC3)c(F)cc1Nc1ncc(C(F)(F)F)c(Cc2cccc3c2C(=O)N(C)C3)n1
10 to 50 nM

Fill in reported IC50 for this entry: COc1cc(C(=O)NC2CC3(CCN(C)CC3)C2)c(Cl)cc1Nc1ncc(C(F)(F)F)c(Oc2cccc3c2C(=O)N(C)C3)n1
< 10 nM

Fill in reported IC50 for this entry: COc1cc(C(=O)NC2CC3(CCN(C)CC3)C2)c(F)cc1Nc1ncc(C(F)(F)F)c(Oc2ccccc2N(C)S(C)(=O)=O)n1
< 10 nM

Fill in reported IC50 for this entry: COc1cc(C(=O)NC2CC3(CCN(C)CC3)C2)c(F)cc1Nc1ncc(C(F)(F)F)c(Oc2cccc3c2C(=O)N(C)C3(C)C)n1
< 10 nM

Fill in reported IC50 for this entry: COc1cc(C(=O)NC2CC3(CCN(C)CC3)C2)ccc1Nc1ncc(C(F)(F)F)c(Oc2cccc3c2C(=O)N(C)C3)n1
< 10 nM

Fill in reported IC50 for this entry: CNC(=O)c1ccccc1Oc1nc(Nc2cc(F)c(C(=O)NC3CC4(CCN(C)C4)CO3)cc2OC)ncc1C(F)(F)F (stereo not shown)
< 10 nM

---

We begin with a simple list: items and their reported IC50.
# tgt: FAK recombinant protein (Homo sapiens)
# protocol_notes: Inhibitory activity against FAK enzyme
# condition_label: TK substrate, ATP

COc1cc(N2CCC23CCN(C)CC3)ccc1Nc1ncc(C(F)(F)F)c(Oc2cccc3c2C(=O)N(C)C3)n1    < 10 nM

Fill in reported IC50 for this entry: COc1cc(C(=O)N2CCC3(CCN(C)CC3)CC2)c(F)cc1Nc1ncc(C(F)(F)F)c(Oc2cccc3c2C(=O)N(C)C3)n1
> 50 nM

Fill in reported IC50 for this entry: COc1cc(C(=O)NC2CCC3(CC2)CN(C)C3)c(F)cc1Nc1ncc(C(F)(F)F)c(Cc2cccc3c2C(=O)N(C)C3)n1
< 10 nM

Fill in reported IC50 for this entry: COc1cc(C(=O)NC2CCC3(CC2)CCN(C)C3)c(F)cc1Nc1ncc(C(F)(F)F)c(Oc2cccc3c2C(=O)N(C)C3)n1 (centres unmarked)
< 10 nM

Fill in reported IC50 for this entry: COc1cc(C(=O)N2CC3(CCN(C)CC3)C2)c(F)cc1Nc1ncc(C(F)(F)F)c(Oc2cccc3c2C(=O)N(C)C3)n1
< 10 nM

Fill in reported IC50 for this entry: CCc1cc(C(=O)NC2CC3(CCN(C)CC3)C2)c(F)cc1Nc1ncc(C(F)(F)F)c(Oc2cccc3c2C(=O)N(C)C3)n1
10 to 50 nM

Fill in reported IC50 for this entry: COc1cc(N2CC3(CCC2=O)CCN(C)CC3)c(F)cc1Nc1ncc(C(F)(F)F)c(Oc2cccc3c2C(=O)N(C)C3)n1
> 50 nM

Fill in reported IC50 for this entry: COc1cc(N2CC3(CCN(C4CC4)CC3)C2)ccc1Nc1ncc(C(F)(F)F)c(Oc2cccc3c2C(=O)N(C)C3)n1
< 10 nM
